Parameter IC50: see the listing below.
targetSystem: Glucocorticoid receptor (Homo sapiens)
Sequence (P04150 whole entry): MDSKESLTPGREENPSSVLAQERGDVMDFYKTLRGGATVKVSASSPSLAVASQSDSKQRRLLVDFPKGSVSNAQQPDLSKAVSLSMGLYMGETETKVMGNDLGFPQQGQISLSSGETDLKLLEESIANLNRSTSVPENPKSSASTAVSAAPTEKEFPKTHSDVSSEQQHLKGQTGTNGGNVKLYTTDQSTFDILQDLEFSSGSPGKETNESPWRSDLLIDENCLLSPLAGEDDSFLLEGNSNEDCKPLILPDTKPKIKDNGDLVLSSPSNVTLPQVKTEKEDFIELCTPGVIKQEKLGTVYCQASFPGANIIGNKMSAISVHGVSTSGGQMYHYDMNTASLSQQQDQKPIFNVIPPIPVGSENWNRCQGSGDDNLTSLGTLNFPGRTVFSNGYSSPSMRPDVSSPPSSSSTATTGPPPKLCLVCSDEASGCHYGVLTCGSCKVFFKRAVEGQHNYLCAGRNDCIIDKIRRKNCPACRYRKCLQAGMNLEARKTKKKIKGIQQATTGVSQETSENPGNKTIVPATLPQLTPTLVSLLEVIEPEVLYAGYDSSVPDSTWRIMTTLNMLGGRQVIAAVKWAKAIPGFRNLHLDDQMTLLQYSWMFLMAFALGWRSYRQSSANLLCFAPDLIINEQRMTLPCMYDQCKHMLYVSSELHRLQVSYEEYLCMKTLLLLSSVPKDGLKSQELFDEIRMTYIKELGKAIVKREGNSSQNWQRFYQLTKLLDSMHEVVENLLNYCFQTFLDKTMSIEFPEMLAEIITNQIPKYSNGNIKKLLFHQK
assayInfo: Antagonist activity at glucocorticoid receptor
Type: functional
# number only, unit nM dropped from output

CC/C(C)=C1\Oc2ccc(F)cc2-c2ccc3c(c21)C(C)=CC(C)(C)N3: 324

Switching to the query record.
What IC50 appears in the records for this molecule with Glucocorticoid receptor (Homo sapiens)? CC1=CC(C)(C)Nc2ccc3c(c21)C(=C1SCCCS1)Oc1ccc(F)cc1-3
146

====

Parameter pIC50: see the listing below.
targetSystem: Mineralocorticoid receptor (Homo sapiens, UniProt P08235)
Sequence (P08235 whole entry): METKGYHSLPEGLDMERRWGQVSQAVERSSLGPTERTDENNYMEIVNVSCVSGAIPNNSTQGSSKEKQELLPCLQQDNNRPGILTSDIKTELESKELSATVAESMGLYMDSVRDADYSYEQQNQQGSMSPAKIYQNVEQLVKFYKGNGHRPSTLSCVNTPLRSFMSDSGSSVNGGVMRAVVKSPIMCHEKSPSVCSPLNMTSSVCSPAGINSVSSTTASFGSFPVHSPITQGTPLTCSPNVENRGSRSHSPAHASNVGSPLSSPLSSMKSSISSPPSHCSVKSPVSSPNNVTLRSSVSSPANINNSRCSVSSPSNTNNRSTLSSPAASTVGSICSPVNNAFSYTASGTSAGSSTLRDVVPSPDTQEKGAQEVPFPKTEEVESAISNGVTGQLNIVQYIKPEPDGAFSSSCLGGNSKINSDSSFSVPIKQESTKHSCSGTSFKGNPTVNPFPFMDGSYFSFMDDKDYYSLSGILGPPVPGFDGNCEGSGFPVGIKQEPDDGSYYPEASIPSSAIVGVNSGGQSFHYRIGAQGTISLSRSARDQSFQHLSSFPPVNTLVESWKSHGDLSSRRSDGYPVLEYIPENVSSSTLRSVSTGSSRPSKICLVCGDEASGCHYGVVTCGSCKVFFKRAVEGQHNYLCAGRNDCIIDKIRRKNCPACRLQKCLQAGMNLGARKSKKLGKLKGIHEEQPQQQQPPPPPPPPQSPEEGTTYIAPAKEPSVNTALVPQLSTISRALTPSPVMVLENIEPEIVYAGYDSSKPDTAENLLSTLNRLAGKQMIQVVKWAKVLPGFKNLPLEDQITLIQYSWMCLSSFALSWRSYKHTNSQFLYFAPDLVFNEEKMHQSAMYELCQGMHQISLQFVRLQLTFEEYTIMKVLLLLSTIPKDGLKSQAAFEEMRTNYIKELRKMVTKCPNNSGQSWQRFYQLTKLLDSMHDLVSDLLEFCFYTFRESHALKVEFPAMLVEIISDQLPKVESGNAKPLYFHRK
assayInfo: Antagonist activity at mineralocorticoid receptor (hMR); not active
Type: functional
pIC50: −log10 of the molar value.

The cases that follow already have their pIC50 on record.
CC(=O)C[C@]1(C(C)=O)CC[C@H]2C3C[C@H](C)C4=CC(=O)CC[C@]4(C)[C@H]3CC[C@@]21C (stereo partly drawn): < 6.00
CC(C)=C/C=C1\Oc2ccc(F)cc2-c2ccc3c(c21)C(C)=CC(C)(C)N3: < 6.00

// query pIC50 value for entry CC1=CC(C)(C)Nc2ccc3c(c21)/C(=C/Br)Oc1ccc(F)cc1-3
< 6.00

====

targetSystem: Progesterone receptor (Homo sapiens)
Sequence (P06401 whole entry): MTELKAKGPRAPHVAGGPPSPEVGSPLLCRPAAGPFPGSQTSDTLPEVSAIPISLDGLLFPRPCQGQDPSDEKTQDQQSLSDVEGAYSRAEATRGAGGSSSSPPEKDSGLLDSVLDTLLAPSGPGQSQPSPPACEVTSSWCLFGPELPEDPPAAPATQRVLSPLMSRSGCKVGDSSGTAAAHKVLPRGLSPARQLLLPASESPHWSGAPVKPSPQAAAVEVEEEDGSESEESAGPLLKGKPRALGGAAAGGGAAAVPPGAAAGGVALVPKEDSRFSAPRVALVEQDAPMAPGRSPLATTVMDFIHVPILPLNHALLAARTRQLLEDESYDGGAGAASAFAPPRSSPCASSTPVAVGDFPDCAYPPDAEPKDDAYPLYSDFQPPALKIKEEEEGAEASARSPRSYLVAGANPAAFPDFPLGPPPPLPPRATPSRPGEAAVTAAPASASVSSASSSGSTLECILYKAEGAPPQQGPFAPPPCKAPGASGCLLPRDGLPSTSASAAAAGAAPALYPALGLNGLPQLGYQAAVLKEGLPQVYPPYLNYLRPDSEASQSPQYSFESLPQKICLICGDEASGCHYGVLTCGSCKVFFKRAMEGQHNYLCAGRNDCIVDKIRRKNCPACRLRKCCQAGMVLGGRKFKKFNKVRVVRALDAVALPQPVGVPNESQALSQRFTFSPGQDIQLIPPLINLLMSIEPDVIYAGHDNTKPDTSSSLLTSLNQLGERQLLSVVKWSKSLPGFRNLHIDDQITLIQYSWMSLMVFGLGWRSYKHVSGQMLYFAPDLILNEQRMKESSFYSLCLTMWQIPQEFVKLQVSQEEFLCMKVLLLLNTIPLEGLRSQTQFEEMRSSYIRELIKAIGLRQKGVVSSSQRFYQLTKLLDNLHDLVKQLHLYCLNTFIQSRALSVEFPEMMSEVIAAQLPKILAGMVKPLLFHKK
assayInfo: Binding affinity for human progesterone receptor; […]
valueKind: Ki (nM)
# number only, unit nM dropped from output

// query Ki value for entry CC(C)=C/C=C1\Oc2ccc(F)cc2-c2ccc3c(c21)C(C)=CC(C)(C)N3
2.5

====

Parameter EC50: see the listing below.
targetSystem: Progesterone receptor (Homo sapiens, UniProt P06401)
Sequence (P06401 whole entry): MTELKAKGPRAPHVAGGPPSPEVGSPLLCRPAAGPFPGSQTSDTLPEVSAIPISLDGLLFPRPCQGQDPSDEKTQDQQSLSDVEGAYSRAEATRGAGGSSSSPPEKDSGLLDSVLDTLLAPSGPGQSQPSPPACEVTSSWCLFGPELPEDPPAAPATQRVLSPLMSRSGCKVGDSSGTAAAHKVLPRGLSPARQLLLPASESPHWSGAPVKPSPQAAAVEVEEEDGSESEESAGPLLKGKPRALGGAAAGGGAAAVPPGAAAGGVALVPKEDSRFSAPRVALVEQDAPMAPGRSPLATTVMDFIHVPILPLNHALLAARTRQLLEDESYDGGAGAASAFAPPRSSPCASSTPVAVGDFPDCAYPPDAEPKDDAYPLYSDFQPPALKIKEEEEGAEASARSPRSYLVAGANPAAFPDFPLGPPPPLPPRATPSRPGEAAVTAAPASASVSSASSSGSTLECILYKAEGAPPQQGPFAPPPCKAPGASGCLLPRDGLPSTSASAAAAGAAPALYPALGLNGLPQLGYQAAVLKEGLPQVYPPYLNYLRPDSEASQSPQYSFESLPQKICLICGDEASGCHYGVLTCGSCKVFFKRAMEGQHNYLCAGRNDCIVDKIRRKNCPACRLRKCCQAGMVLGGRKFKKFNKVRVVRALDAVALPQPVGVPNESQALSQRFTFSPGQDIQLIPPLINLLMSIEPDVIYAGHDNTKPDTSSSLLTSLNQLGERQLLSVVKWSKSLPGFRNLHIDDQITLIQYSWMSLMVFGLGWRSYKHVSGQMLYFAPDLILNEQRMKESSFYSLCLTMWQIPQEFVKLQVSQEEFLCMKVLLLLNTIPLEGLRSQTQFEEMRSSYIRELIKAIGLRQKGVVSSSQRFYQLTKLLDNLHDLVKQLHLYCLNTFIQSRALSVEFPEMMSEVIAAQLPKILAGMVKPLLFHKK
assayInfo: Effective concentration for agonist activity towards human progesterone receptor (hPR) using the cotransfection assay in CV-1 cells
Assay type: functional, cell-based
# number only, unit µM dropped from output

CC1=CC(C)(C)Nc2ccc3c(c21)C(=C1SCCCS1)Oc1ccc(F)cc1-3: 0.0021
CC1=CC(C)(C)Nc2ccc3c(c21)/C(=C/C1CCCCC1)Oc1ccc(F)cc1-3: 0.048
C=C(/C=C1\Oc2ccc(F)cc2-c2ccc3c(c21)C(C)=CC(C)(C)N3)C(C)C: 0.029
CC(=O)C[C@]1(C(C)=O)CC[C@H]2C3C[C@H](C)C4=CC(=O)CC[C@]4(C)[C@H]3CC[C@@]21C (stereo partly specified): 0.00015

// query EC50 value for entry CC/C(C)=C1\Oc2ccc(F)cc2-c2ccc3c(c21)C(C)=CC(C)(C)N3
0.011

Now the same for CC/C(C)=C1/Oc2ccc(F)cc2-c2ccc3c(c21)C(C)=CC(C)(C)N3
0.027

Now the same for CCC/C=C1\Oc2ccc(F)cc2-c2ccc3c(c21)C(C)=CC(C)(C)N3
0.028

Now the same for CC1=CC(C)(C)Nc2ccc3c(c21)/C(=C/C#N)Oc1ccc(F)cc1-3
2.7
